molecular target: full-length beta-Catenin (Uniprot ID P35222) (Homo sapiens (Human)) (UniProt P35222); experiment: FP competition: displacement of 5FAM-TCF4(10-53) from full-length beta-catenin
Sequence (P35222 whole entry): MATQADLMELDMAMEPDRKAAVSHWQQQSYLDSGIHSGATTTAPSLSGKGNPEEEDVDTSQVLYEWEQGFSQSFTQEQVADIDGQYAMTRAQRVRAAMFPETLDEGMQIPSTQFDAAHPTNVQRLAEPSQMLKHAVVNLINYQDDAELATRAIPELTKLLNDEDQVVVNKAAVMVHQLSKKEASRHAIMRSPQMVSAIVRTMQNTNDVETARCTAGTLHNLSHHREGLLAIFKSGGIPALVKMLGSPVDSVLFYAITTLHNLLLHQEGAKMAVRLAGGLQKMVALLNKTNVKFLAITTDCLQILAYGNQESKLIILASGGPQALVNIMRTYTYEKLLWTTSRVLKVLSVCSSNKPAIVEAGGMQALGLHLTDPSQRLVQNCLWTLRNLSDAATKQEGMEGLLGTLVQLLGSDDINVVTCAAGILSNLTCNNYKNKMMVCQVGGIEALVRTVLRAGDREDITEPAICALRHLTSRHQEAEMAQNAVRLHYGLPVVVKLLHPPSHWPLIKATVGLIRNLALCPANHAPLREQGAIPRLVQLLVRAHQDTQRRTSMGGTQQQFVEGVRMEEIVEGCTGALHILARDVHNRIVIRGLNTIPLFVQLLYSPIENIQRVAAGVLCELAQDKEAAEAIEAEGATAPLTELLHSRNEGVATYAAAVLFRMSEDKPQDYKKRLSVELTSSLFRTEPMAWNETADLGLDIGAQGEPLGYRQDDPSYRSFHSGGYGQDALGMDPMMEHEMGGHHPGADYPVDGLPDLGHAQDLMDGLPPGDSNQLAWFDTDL
Starred links: 1 amine or outer side, 2 acyl side, 3 side chain; linkers in the order of their positions; H or OH if unused. Positions of bridges follow the written chain, without caps; N, C: chain ends. Non-standard residues stand in square brackets, D forms with d. Primed or numbered codes have the meaning given here. PyrS2″ = (S)-3-amino-1-((pent-4-en-1-yloxy)carbonyl)pyrrolidine-3-carboxylic acid (stapling residue), C=CCCCOC(=O)N1CC[C@@](N[*:1])(C(=O)[*:2])C1; B5(5) = 2,2-bis(4-pentenyl)glycine, 2-amino-2-(pent-4-en-1-yl)hept-6-enoic acid (stitching residue), C=CCCCC(CCCC=C)(N[*:1])C(=O)[*:2]; 1Nal = N[C@@H](Cc1cccc2ccccc12)C(=O)O; Bta = N[C@@H](Cc1csc2ccccc12)C(=O)O; αAllylPro = C=CC[C@@]1(C(=O)O)CCCN1; tBuAla = CC(C)(C)C[C@H](N)C(=O)O; 3Thi = N[C@@H](Cc1ccsc1)C(=O)O
reported.metric: pEC50
Just so you know, pEC50 here is -log10 of the concentration in molar units; reply with that number alone.

Take a look at these entries with their results.
binder	recorded.measurement
Ac-[αAllylPro]D[tBuAla][B5(5)]LDAAFN[PyrS2″][3Thi][Bta]Q-NH2 (staple 1-4, 4-11) [I-1212]	5.06
Ac-[αAllylPro]D[tBuAla][B5(5)]DDAAFT[PyrS2″][3Thi][1Nal]Q-NH2 (staple 1-4, 4-11) [I-1232]	7.51

Turning now to a further record.
Exercise: // lookup pEC50 for Ac-[αAllylPro]D[tBuAla][B5(5)]QDAAFN[PyrS2″][3Thi][Bta]Q-NH2 (staple 1-4, 4-11) [I-1210]
Key: 7.25
